System: Staphylococcus aureus MW2 delta-mecA (mecA-)
Experiment: normalized GFP fluorescence (growth of mecA- strain) (fraction of control range); higher = more growth of mecA- strain
Details: compound concentration: 150 uM; cefoxitin: subinhibitory; fluorescent label: GFP
assay endpoint: normalized GFP fluorescence
Reply: number alone, nothing else.

// below: answered compounds
Name the reported normalized GFP fluorescence value associated with the compound CC(C)(CO)[C@@H](O)C(=O)NCCCO
0.406

Name the reported normalized GFP fluorescence value associated with the compound C[C@](N)(Cc1ccc(O)c(O)c1)C(=O)O
0.258

Name the reported normalized GFP fluorescence value associated with the compound O=C(NCC1CCCCN1)c1cc(OCC(F)(F)F)ccc1OCC(F)(F)F (stereo not drawn)
0.508

Name the reported normalized GFP fluorescence value associated with the compound CC[C@H](C)C(=O)O[C@H]1C[C@@H](C)C=C2C=C[C@H](C)[C@H](CC[C@@H]3C[C@@H](O)CC(=O)O3)[C@H]21
0.345

Name the reported normalized GFP fluorescence value associated with the compound O=C1NCC2(CCN(CCc3ccccc3)CC2)O1
0.307

New cases:
Name the reported normalized GFP fluorescence value associated with the compound CN(C)CCOC(c1ccccc1)c1ccccc1
0.272

Name the reported normalized GFP fluorescence value associated with the compound Cc1ccc(=O)n(-c2ccccc2)c1
0.368

Name the reported normalized GFP fluorescence value associated with the compound CCCCCCNC(=O)n1cc(F)c(=O)[nH]c1=O
0.605
